Listing: Ka of selected compounds
target-system: Estrogen receptor (Rattus norvegicus) (UniProt P06211+Q62986)
assay-overview: In vitro affinity for rat Estrogen receptor
Type: protein assay

Incoming: System Estrogen receptor (Rattus norvegicus) (UniProt P06211+Q62986). Read-out Ka. Item CCNC(c1c(Cl)cccc1Cl)C(NCC)c1c(Cl)cccc1Cl (stereo in doubt) . Report value.
Outgoing: 670000

Incoming: Name the value of Ka reported for CCCNC(c1c(Cl)cccc1Cl)C(NCCC)c1c(Cl)cccc1Cl (stereo in doubt; 2g (d,l)) when tested on Estrogen receptor (Rattus norvegicus) (UniProt P06211+Q62986).
Outgoing: 830000

Incoming: // fetch Ka for CN1CN(C)C(c2c(Cl)cccc2Cl)C1c1c(Cl)cccc1Cl (stereo in doubt; cis) ; system: Estrogen receptor (Rattus norvegicus) (UniProt P06211+Q62986)
Outgoing: 180000

Incoming: Given CCNC(c1c(Cl)cccc1Cl)C(NCC)c1c(Cl)cccc1Cl (stereo in doubt; 2f (d,l)) , report its Ka on Estrogen receptor (Rattus norvegicus) (UniProt P06211+Q62986).
Outgoing: 130000

Incoming: State measured Ka of the compound CC[C@H](c1ccc(O)cc1)[C@@H](CC)c1ccc(O)cc1 with Estrogen receptor (Rattus norvegicus) (UniProt P06211+Q62986).
Outgoing: 8.3e+08

Incoming: Find Ka for CCCNC(c1c(Cl)cccc1Cl)C(NCCC)c1c(Cl)cccc1Cl (stereo in doubt) on Estrogen receptor (Rattus norvegicus) (UniProt P06211+Q62986) and write it down.
Outgoing: 2.3e+06

Incoming: Give Ka only, for CCN1CN(CC)C(c2c(Cl)cccc2Cl)C1c1c(Cl)cccc1Cl (trans isomer) , using Estrogen receptor (Rattus norvegicus) (UniProt P06211+Q62986) data.
Outgoing: 200000

Incoming: Fetch value of Ka on Estrogen receptor (Rattus norvegicus) (UniProt P06211+Q62986) for CNC(c1c(Cl)cccc1Cl)C(NC)c1c(Cl)cccc1Cl (stereo in doubt; 2e (d,l)) .
Outgoing: 140000

Further cases:
Incoming: Please indicate recorded Ka of CCCN1CN(CCC)C(c2c(Cl)cccc2Cl)C1c1c(Cl)cccc1Cl (trans isomer) measured with Estrogen receptor (Rattus norvegicus) (UniProt P06211+Q62986).
Outgoing: 1.6e+06

// data source = ChEMBL document CHEMBL1121365
